Numbers sourced from ChEMBL document CHEMBL3507680.

Consider the following compounds and their measured cytotoxicity at 70.5 h readings.
Test: Human HepG2 cell viability assay in 384 well format
Type: toxicity, cell-based
Parameters: dose 125 nL, time 70.5 hour; concentration not given beside the values
Conditions: HepG2 cells, read-out: Inhibition
Enter your answer as a number in %; do not include the unit.

Solved entries (count: 2):
CNC(=O)[C@H]1C[C@@H]2CCN(Cc3ccc4c(c3)OCO4)C[C@@H]2O1; -7.08
COc1ccccc1CC(NC(=O)N1CCOCC1)C(C)C (centres undefined); 17.3

For Cn1c(CCNC(=O)CC[C@@H]2CCCN3CCCC[C@H]23)n[nH]c1=O , what is its reported cytotoxicity at 70.5 h?
-14.7

I would be grateful if you could share the reported cytotoxicity at 70.5 h for CN1C[C@H]2CCN(C(=O)NC3CCCC3)CC[C@H]2S1(=O)=O .
-17.8
